- TARGET: ASK1-TIR1-IAA6 co-receptor complex (TIR1-IAA6) (Arabidopsis thaliana, UniProt Q38824+Q570C0)
- Construct: ASK1-TIR1 from insect cells (Sf9 or Hi5), purified; IAA6 N-terminally GST-tagged from E. coli, full length; with SKP1-like protein 1A
- METHOD_DESCRIPTION: homologous competition radioligand binding
READOUT_NAME: Ki (nM)
Kindly provide the numeric value in nM only, without the unit symbol.

query: What measured Ki goes with O=C(O)Cc1c[nH]c2ccccc12 ?
result: 99.3

* * *

- TARGET: ASK1-TIR1-IAA19 co-receptor complex (TIR1-IAA19) (Arabidopsis thaliana, UniProt O24409+Q570C0)
- Construct: ASK1-TIR1 from insect cells (Sf9 or Hi5), purified; IAA19 N-terminally GST-tagged from E. coli, full length; with SKP1-like protein 1A
- METHOD_DESCRIPTION: homologous competition radioligand binding
READOUT_NAME: Ki

query: Recorded Ki of O=C(O)Cc1c[nH]c2ccccc12 , please.
result: 33.5 nM
